ASSAYED TARGET: Rat brain protein farnesyltransferase (Rattus norvegicus, UniProt Q02293+Q04631)
Construct: Rat brain protein farnesyltransferase activity is measured; from tissue; host or cells: rat brain
Sequence (Q02293 whole entry, one chain of several): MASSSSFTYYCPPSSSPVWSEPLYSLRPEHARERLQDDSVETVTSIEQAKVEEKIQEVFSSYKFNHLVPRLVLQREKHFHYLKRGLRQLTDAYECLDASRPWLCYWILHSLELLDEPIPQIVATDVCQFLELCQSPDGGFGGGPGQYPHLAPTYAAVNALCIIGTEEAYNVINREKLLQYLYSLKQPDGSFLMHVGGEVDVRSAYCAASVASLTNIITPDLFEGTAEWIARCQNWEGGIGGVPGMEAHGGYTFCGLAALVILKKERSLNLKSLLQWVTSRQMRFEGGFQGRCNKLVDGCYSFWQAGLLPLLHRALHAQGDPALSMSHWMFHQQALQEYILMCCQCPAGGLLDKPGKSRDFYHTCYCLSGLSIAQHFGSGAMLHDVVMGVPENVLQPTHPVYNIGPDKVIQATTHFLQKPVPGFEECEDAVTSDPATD
MEASUREMENT DESCRIPTION: % inhibition of farnesylation, scintillation proximity assay with biotin-K Ras B fragment
Format: biochemical
CONDITION LABEL: read-out: % inhibition at 1 × 10^-8 M
Protocol: The ability of the compounds of the invention to inhibit protein farnesyltransferase or protein geranylgeranyltransferase can be measured according to the method of Moores, et al., J. Biol. Chem. 266: 14603 (1991) or the method of Vogt, et al., J. Biol. Chem. 270:660-664 (1995). […] In addition, in vitro inhibition of protein farnesyltransferase may be measured by the following procedure. […] The % inhibition of protein farnesyltransferase was determined for representative compounds of the invention.
Counter-ions that a name gives are not always drawn.
Class Met: inhibition at 0.01 µM at least 80%. Class Not met: inhibition at 0.01 µM below 80%.

compound="CSCC[C@H](NC(=O)c1ccc(COCc2cnc(-c3ccc(Cl)cc3)s2)cc1-c1ccccc1C)C(=O)O [Example 901, lithium salt]" assayed_target="Rat brain protein farnesyltransferase (Rattus norvegicus, UniProt Q02293+Q04631)" class_label=Met
compound="CSCC[C@H](NC(=O)c1ccc(COCc2cnc(-c3cccc(Cl)c3)s2)cc1-c1ccccc1C)C(=O)O [Example 899, lithium salt]" assayed_target="Rat brain protein farnesyltransferase (Rattus norvegicus, UniProt Q02293+Q04631)" class_label=Met
compound="CSCC[C@H](NC(=O)c1ccc(COCc2cnc(-c3ccccc3Cl)s2)cc1-c1ccccc1C)C(=O)O [Example 897, lithium salt]" assayed_target="Rat brain protein farnesyltransferase (Rattus norvegicus, UniProt Q02293+Q04631)" class_label="Not met"
compound="CSCC[C@H](NC(=O)c1ccc(COCc2ccccc2Cl)cc1-c1ccccc1C)C(=O)O [Example 930, lithium salt]" assayed_target="Rat brain protein farnesyltransferase (Rattus norvegicus, UniProt Q02293+Q04631)" class_label="Not met"
compound="CSCC[C@H](NC(=O)c1ccc(COCCc2ccccc2Cl)cc1-c1ccccc1C)C(=O)O [Example 588, lithium salt]" assayed_target="Rat brain protein farnesyltransferase (Rattus norvegicus, UniProt Q02293+Q04631)" class_label="Not met"
compound="CSCC[C@H](NC(=O)c1ccc(COC(Cc2ccccc2)c2cncs2)cc1-c1ccccc1C)C(=O)O (stereo partly shown) [Example 828, lithium salt]" assayed_target="Rat brain protein farnesyltransferase (Rattus norvegicus, UniProt Q02293+Q04631)" class_label=Met
compound="CSCC[C@H](NC(=O)c1ccc(COCc2cnc(-c3ccccc3Cl)o2)cc1-c1ccccc1C)C(=O)O [Example 892, lithium salt]" assayed_target="Rat brain protein farnesyltransferase (Rattus norvegicus, UniProt Q02293+Q04631)" class_label="Not met"
